Molecular target: adrenergic α1B receptor (Homo sapiens)
Sequence (P35368 1-520): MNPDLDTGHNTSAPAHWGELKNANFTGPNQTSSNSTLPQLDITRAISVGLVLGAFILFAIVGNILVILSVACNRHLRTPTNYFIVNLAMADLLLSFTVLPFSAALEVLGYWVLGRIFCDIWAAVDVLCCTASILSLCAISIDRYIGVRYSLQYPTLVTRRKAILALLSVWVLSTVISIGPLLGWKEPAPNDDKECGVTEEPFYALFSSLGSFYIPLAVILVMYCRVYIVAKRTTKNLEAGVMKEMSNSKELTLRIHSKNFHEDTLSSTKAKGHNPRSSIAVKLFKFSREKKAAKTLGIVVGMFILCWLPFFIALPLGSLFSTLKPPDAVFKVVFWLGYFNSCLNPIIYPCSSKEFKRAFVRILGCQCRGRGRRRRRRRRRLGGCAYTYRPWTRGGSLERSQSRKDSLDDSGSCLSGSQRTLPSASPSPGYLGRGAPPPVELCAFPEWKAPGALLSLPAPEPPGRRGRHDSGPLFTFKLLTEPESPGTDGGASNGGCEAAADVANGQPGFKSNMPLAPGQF
Assay: Off-target activity at adrenergic α1B receptor
Conditions: off-target site
Quantity: Ki (nM)
Write down the numeric answer in nM and omit the unit.

Specify measured Ki for Nc1ccc(-c2ccc3c(c2)CNC[C@H]3c2ccc3ccccc3c2)nn1 [Compound 31] . 260

----------
Target: DAT (Homo sapiens, UniProt Q01959)
Sequence (Q01959 whole entry): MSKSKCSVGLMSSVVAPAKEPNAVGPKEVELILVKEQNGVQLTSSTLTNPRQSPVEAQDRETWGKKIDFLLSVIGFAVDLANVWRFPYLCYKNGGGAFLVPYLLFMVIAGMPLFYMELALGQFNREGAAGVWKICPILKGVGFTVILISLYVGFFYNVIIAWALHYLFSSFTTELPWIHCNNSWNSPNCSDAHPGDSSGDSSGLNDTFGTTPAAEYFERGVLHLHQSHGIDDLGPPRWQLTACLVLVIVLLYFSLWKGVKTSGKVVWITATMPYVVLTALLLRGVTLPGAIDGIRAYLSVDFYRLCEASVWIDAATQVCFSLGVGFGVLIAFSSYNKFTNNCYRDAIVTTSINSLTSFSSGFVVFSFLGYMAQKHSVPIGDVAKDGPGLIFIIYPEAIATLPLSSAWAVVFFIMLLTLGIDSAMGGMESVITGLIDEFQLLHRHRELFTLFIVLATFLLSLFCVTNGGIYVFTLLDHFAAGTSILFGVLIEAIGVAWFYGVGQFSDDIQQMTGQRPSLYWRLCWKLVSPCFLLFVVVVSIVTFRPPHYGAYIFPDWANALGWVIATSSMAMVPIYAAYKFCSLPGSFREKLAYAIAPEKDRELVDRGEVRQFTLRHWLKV
Experiment: Competition binding, membranes from HEK cells overexpressing DAT
Set-up: expressed in transfected cells; host or cells: HEK cells (membranes)
Conditions: radioligand at Kd concentration; HEK cell membranes
Quantity: IC50
Please answer using the number first and the unit second.

[
  {
    "Substance smiles": "CN1Cc2cc(-c3ccc(N)nn3)ccc2[C@H](c2ccc3ccccc3c2)C1",
    "IC50": "5.67 nM"
  }
]

Now look at this one.
Provide DAT (Homo sapiens, UniProt Q01959) IC50 reading for Nc1ccc(-c2ccc3c(c2)CNC[C@H]3c2ccc3ccccc3c2)nn1 . 6.19 nM

----------
Biological target: UniProt P25100
Sequence (P25100 whole entry): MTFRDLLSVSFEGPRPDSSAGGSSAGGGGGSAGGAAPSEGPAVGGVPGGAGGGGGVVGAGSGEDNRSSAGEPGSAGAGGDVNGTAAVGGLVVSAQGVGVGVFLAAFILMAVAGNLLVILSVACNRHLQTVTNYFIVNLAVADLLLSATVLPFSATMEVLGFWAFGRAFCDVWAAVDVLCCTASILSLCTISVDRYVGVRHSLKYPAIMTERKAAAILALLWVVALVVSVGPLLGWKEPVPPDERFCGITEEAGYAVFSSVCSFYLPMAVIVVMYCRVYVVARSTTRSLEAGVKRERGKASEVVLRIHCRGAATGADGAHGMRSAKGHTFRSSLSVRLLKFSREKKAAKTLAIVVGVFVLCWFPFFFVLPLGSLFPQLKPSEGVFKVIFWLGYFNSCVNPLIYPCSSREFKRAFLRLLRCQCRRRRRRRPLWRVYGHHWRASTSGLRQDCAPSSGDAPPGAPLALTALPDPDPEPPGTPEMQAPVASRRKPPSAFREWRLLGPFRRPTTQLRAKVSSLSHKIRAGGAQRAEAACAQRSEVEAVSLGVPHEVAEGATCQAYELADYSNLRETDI
Assay: Off-target activity at adrenergic α1D receptor
Settings: off-target site
Quantity: Ki (µM)
# output: bare number, implied unit µM

Please tell me the measured Ki for Nc1ccc(-c2ccc3c(c2)CNC[C@H]3c2ccc3ccccc3c2)nn1 ; system: UniProt P25100. 0.48

----------
Biological target: UniProt:Q01959
Assay: [3H]DA uptake into HEK293/hDAT cells
Type: cell-based
Design: expressed in transfected cells; host or cells: HEK293
Details: read-out: Dopamine reuptake IC50 ([3H]DA uptake)
Quantity: IC50 (nM)
Dear colleague, please return just the value in nM, with no unit written.

Answer with the recorded IC50 for the compound listed here: CN1Cc2cc(-c3ccc(N)nn3)ccc2[C@H](c2ccc3ccccc3c2)C1 31.5

----------
Target: UniProtKB B6EUL3
Sequence (B6EUL3 1-617): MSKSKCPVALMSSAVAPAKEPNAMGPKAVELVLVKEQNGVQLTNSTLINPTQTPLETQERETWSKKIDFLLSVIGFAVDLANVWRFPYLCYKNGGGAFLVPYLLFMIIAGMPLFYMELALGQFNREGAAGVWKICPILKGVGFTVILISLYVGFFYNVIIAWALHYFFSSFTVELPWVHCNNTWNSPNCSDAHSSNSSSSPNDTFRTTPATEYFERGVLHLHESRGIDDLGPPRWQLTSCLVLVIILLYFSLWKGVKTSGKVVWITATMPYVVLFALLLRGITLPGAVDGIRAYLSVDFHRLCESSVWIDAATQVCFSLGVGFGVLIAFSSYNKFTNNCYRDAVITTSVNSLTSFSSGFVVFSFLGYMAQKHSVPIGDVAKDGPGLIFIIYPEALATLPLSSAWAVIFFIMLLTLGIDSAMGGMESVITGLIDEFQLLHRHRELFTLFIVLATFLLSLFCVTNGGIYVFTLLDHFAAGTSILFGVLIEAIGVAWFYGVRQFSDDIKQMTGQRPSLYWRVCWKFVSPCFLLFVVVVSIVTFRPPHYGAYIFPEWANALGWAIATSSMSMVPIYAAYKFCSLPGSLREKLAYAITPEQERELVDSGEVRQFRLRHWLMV
Assay: DAT occupancy, dog
Conditions: single binding site model, read-out: total plasma concentration producing 50% effect (EC50), DAT occupancy
Quantity: pEC50
Reminder that pEC50 means the negative base-10 logarithm of the concentration expressed in mol/L.

Let me know recorded pEC50 for CN1Cc2cc(-c3ccc(N)nn3)ccc2[C@H](c2ccc3ccccc3c2)C1 [Compound 1-(4S)] , thanks. 6.99

----------
Target: 5-HT1A (Homo sapiens)
Sequence (P08908 1-422): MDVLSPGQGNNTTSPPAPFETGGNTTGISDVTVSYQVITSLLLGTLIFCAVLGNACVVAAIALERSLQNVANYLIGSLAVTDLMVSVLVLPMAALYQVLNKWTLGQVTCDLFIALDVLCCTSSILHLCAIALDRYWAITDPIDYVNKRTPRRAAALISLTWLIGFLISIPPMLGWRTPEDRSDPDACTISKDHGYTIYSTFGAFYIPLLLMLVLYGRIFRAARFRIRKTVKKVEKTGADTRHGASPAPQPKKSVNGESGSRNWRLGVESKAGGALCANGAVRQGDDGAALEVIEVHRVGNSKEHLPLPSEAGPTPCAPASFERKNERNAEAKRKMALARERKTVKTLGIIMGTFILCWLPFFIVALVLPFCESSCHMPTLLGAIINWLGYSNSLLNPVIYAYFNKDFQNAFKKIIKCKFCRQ
Experiment: Off-target activity at 5-HT1A
Conditions: off-target site; read-out: 5-HT1A inhibition constant Ki
Quantity: Ki (µM)
Your answer should be a plain number; it is taken to be in µM.

Given Nc1ccc(-c2ccc3c(c2)CNC[C@H]3c2ccc3ccccc3c2)nn1 , respond with its Ki. 0.099
